# Assayed target: cortisol synthase (CYP11B1) (Macaca fascicularis)
# Assay protocol: Inhibition of cortisol synthesis (cynomolgus adrenal mitochondria, cortisol by mass spectrometry)
# Assay type: biochemical, cynomolgus monkey
# Test context: 11-deoxycortisol substrate, 150 units CYP11B1; read-out: Cortisol Inhibition IC50
Label scheme for IC50: band 1: < 1 µM; band 2: ≥ 1 µM and < 9 µM; band 3: ≥ 9 µM

| Molecule | Group label |
| --- | --- |
| CC1(C)CC(=O)c2c(ncn2C2CCc3cc(Br)ccc3C2)C1 (stereo not drawn) [C-ACM] | band 3 |
| Cc1cc(-n2cnc3c2C(=O)CC2(CCC2)C3)ccc1C#N [C-AAU] | band 1 |
| Cc1ccc(-n2cnc3c2C(=O)CC(C)(C)C3)cc1C#N [C-ABY] | band 2 |
| CC1(C)CC(=O)c2c(ncn2C2CC(c3ccccc3)C2)C1 (stereo not drawn) [C-ACU] | band 3 |
| CN1C(=O)CCc2cc(-n3cnc4c3C(=O)CC3(CC3)C4)ccc21 [C-ACH] | band 2 |
| CN1C(=O)CCc2cc(-n3cnc4c3C(=O)CC3(CCC3)C4)ccc21 [C-AAV] | band 3 |
| CC1(C)CC(=O)c2c(ncn2Cc2ccc3[nH]ncc3c2)C1 [C-ACY] | band 2 |
| N#Cc1ccc(-n2cnc3c2C(=O)CC2(CC2)C3)cc1 [C-AAX] | band 2 |
| CN1C(=O)COc2cc(-n3cnc4c3C(=O)CCC4)ccc21 [C-AAN] | band 3 |
| N#Cc1ccc(-n2cnc3c2C(=O)CC2(CCC2)C3)cc1 [C-AAT] | band 1 |
| CC1(C)CC(=O)c2c(ncn2-c2ccc(F)c(Cl)c2)C1 [C-ABI] | band 1 |
| N#Cc1ccc(-n2cnc3c2C(=O)CCC3)nc1 [C-ADW] | band 3 |
| CC1(C)CC(=O)c2c(ncn2-c2cccc(Cl)c2Cl)C1 [C-ABF] | band 1 |
| Cn1ncc2c1CC(n1cnc3c1C(=O)CCC3)CC2 (stereo not drawn) [C-AEF] | band 3 |
| CC1(C)CC(=O)c2c(ncn2CC2CCOCC2)C1 [C-ADI] | band 3 |
| O=C1CCCc2ncn(-c3ccc4c(c3)OCCCO4)c21 [C-AAJ] | band 3 |
| CC1(C)CC(=O)c2c(ncn2Cc2ccc(C(=O)N3CC[C@@H](O)C3)cc2)C1 [C-ADT] | band 3 |
| CN1C[C@@H](n2cnc3c2C(=O)CC(C)(C)C3)CCC1=O [C-ACR] | band 3 |
| O=C1CCCc2ncn(-c3ccc4c(c3)CCO4)c21 [C-AAE] | band 3 |
| Cc1cc(-n2cnc3c2C(=O)CC2(CCOCC2)C3)ccc1C#N [C-AAO] | band 2 |
| CC1(C)CC(=O)c2c(ncn2-c2ccc(F)cc2)C1 [C-ABP] | band 2 |
| CN(CCO)C(=O)c1ccc(Cn2cnc3c2C(=O)CC(C)(C)C3)cc1 [C-ADS] | band 3 |
| CC1(C)CC(=O)c2c(ncn2CC2CCOC2)C1 (stereo not drawn) [C-ACX] | band 3 |
